test system: human PBMC cells; test: human PBMC assay: IFN-γ and IFN-α in cell-free medium by ELISA; type: cell-based; settings: donor 17243; test samples 20 μg/ml, 24 hours; '+ PLGA' = premixed with 100 μg/ml cPLGA; SAC 1/5000 dilution
IFN-γ (pg/ml) 17243 strictly less than 100 pg/mL = yes. Otherwise no.

{"substance": "5′-TGACTGTGAACCTTAGAGATGA-3′ (DNA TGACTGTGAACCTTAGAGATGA; DNA, all phosphorothioate, methylation of C not given here) [P-7]", "className": "yes"}
{"substance": "(5′-TCGACGT3′-HEG)2-(T-C6 brancher)-HEG-5′-TCGACGT-3′ [B07 (#2)]", "className": "no"}
{"substance": "(5′-TCGACGT-3′-HEG)2-symmetrical doubler-HEG-5′-TCGACGT-3′ [C-124]", "className": "no"}
{"substance": "(5′-TAGTCAT-HEG)3-trebler-HEG-5′-TAGTCAT-3′ [M-102]", "className": "yes"}
{"substance": "(5′-TAGTCAT-3′-HEG)2-glycerol-HEG-5′-AACCTTC-3′ [M-100]", "className": "yes"}
{"substance": "(5-TCGACGT-3′-HEG)2-(T-C6)-AHA-HEG-5′-TCGACGT-3′ [B07]", "className": "no"}
{"substance": "(5′-TAGTCAT-3′-HEG)2-symmetrical doubler-HEG-5′-TAGTCAT-3′ [M-101]", "className": "yes"}
{"substance": "(5′-TCGACGT-3′-HEG)2-glycerol-HEG-5′-TCGACGT-3′ [C-101]", "className": "no"}
{"substance": "(5′-TCGACGT-3′-HEG)3-trebler-HEG-5′-TCGACGT-3′ [C-125]", "className": "no"}

====

system: human PBMC cells; assay: human PBMC assay: IFN-γ and IFN-α in cell-free medium by ELISA; type: cell-based; details: mean of 4 donors; test samples 20 μg/ml, 24 hours; '+ PLGA' = premixed with 100 μg/ml cPLGA

{"substance": "(5′-TAGTCAT-3′-HEG)2-symmetrical doubler-HEG-5′-TAGTCAT-3′ [M-101]", "IFN-α (pg/ml) mean [pg/mL]": 32}
{"substance": "(5′-TAGTCAT-3′-HEG)2-glycerol-HEG-5′-AACCTTC-3′ [M-100]", "IFN-α (pg/ml) mean [pg/mL]": 30}
{"substance": "(5-TCGACGT-3′-HEG)2-(T-C6)-AHA-HEG-5′-TCGACGT-3′ [B07]", "IFN-α (pg/ml) mean [pg/mL]": 610}
{"substance": "5′-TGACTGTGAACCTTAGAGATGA-3′ (DNA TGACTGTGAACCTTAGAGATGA; DNA, all phosphorothioate, methylation of C not given here) [P-7]", "IFN-α (pg/ml) mean [pg/mL]": 30}

====

System: human PBMC cells
Assay: human PBMC assay: IFN-γ and IFN-α in cell-free medium by ELISA
Type: cell-based
Conditions: mean of 4 donors; test samples 20 μg/ml, 24 hours; '+ PLGA' = premixed with 100 μg/ml cPLGA
From the text: Peripheral blood was collected from volunteers by venipuncture using heparinized syringes. Blood was layered onto a FICOLL® (Amersham Pharmacia Biotech) cushion and centrifuged. PBMCs, located at the FICOLL® interface, were collected, then washed twice with cold phosphate buffered saline (PBS). […]
Quick list: IFN-α (pg/ml) mean per entry.

{"substance": "(5′-TCGACGT3′-HEG)2-(T-C6 brancher)-HEG-5′-TCGACGT-3′ [B07 (#2)]", "IFN-α (pg/ml) mean": "796 pg/mL"}
{"substance": "(5′-TCGACGT-3′-HEG)3-trebler-HEG-5′-TCGACGT-3′ [C-125]", "IFN-α (pg/ml) mean": "795 pg/mL"}
{"substance": "(5′-TCGACGT-3′-HEG)2-symmetrical doubler-HEG-5′-TCGACGT-3′ [C-124]", "IFN-α (pg/ml) mean": "680 pg/mL"}
{"substance": "(5′-TAGTCAT-HEG)3-trebler-HEG-5′-TAGTCAT-3′ [M-102]", "IFN-α (pg/ml) mean": "30 pg/mL"}

====

tested on: human PBMC cells; assay: human PBMC assay: IFN-γ and IFN-α in cell-free medium by ELISA; format: cell-based; details: donor 17242; test samples 20 μg/ml, 24 hours; '+ PLGA' = premixed with 100 μg/ml cPLGA; SAC 1/5000 dilution
propertyMeasured: IFN-γ (pg/ml) 17242

{"substance": "(5′-TAGTCAT-3′-HEG)2-glycerol-HEG-5′-AACCTTC-3′ [M-100]", "testTarget": "human PBMC cells", "observedValue": "10 pg/mL"}
{"substance": "(5′-TCGACGT-3′-HEG)2-symmetrical doubler-HEG-5′-TCGACGT-3′ [C-124]", "testTarget": "human PBMC cells", "observedValue": "65 pg/mL"}
{"substance": "(5′-TAGTCAT-3′-HEG)2-symmetrical doubler-HEG-5′-TAGTCAT-3′ [M-101]", "testTarget": "human PBMC cells", "observedValue": "10 pg/mL"}
{"substance": "(5′-TCGACGT-3′-HEG)3-trebler-HEG-5′-TCGACGT-3′ [C-125]", "testTarget": "human PBMC cells", "observedValue": "85 pg/mL"}
{"substance": "(5′-TCGACGT-3′-HEG)2-glycerol-HEG-5′-TCGACGT-3′ [C-101]", "testTarget": "human PBMC cells", "observedValue": "73 pg/mL"}
{"substance": "5′-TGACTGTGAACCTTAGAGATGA-3′ (DNA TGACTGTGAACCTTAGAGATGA; DNA, all phosphorothioate, methylation of C not given here) [P-7]", "testTarget": "human PBMC cells", "observedValue": "10 pg/mL"}
{"substance": "(5′-TCGACGT3′-HEG)2-(T-C6 brancher)-HEG-5′-TCGACGT-3′ [B07 (#2)]", "testTarget": "human PBMC cells", "observedValue": "48 pg/mL"}
{"substance": "(5-TCGACGT-3′-HEG)2-(T-C6)-AHA-HEG-5′-TCGACGT-3′ [B07]", "testTarget": "human PBMC cells", "observedValue": "30 pg/mL"}
{"substance": "(5′-TAGTCAT-HEG)3-trebler-HEG-5′-TAGTCAT-3′ [M-102]", "testTarget": "human PBMC cells", "observedValue": "10 pg/mL"}

====

Quick list: IFN-α (pg/ml) 17243 per entry.
tested on: human PBMC cells; assay: human PBMC assay: IFN-γ and IFN-α in cell-free medium by ELISA; format: cell-based; conditions: donor 17243; test samples 20 μg/ml, 24 hours; '+ PLGA' = premixed with 100 μg/ml cPLGA; SAC 1/5000 dilution
propertyMeasured: IFN-α (pg/ml) 17243

{"substance": "(5′-TAGTCAT-3′-HEG)2-glycerol-HEG-5′-AACCTTC-3′ [M-100]", "observedValue": "30 pg/mL"}
{"substance": "5′-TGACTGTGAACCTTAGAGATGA-3′ (DNA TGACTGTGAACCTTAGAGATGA; DNA, all phosphorothioate, methylation of C not given here) [P-7]", "observedValue": "30 pg/mL"}
{"substance": "(5′-TCGACGT-3′-HEG)2-glycerol-HEG-5′-TCGACGT-3′ [C-101]", "observedValue": "293 pg/mL"}
{"substance": "(5-TCGACGT-3′-HEG)2-(T-C6)-AHA-HEG-5′-TCGACGT-3′ [B07]", "observedValue": "201 pg/mL"}

====

Quick list: IFN-α +PLGA per entry.
test system: human PBMC cells; experiment: human PBMC assay: IFN-γ and IFN-α in cell-free medium by ELISA; type: cell-based; settings: mean results (Table 4; unit in Table 3); 20 μg/ml formulated with 100 μg/ml cPLGA, 24 hours
propertyMeasured: IFN-α +PLGA

{"substance": "(5′-TAGTCAT-3′-HEG)2-glycerol-HEG-5′-AACCTTC-3′ [M-100]", "observedValue": "69 pg/mL"}
{"substance": "(5′-TCGACGT3′-HEG)2-(T-C6 brancher)-HEG-5′-TCGACGT-3′ [B07 (#2)]", "observedValue": "8998 pg/mL"}
{"substance": "5′-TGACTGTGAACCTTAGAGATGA-3′ (DNA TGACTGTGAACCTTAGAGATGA; DNA, all phosphorothioate, methylation of C not given here) [P-7]", "observedValue": "30 pg/mL"}
{"substance": "(5′-TCGACGT-3′-HEG)2-symmetrical doubler-HEG-5′-TCGACGT-3′ [C-124]", "observedValue": "7017 pg/mL"}
{"substance": "(5-TCGACGT-3′-HEG)2-(T-C6)-AHA-HEG-5′-TCGACGT-3′ [B07]", "observedValue": "7298 pg/mL"}
{"substance": "(5′-TAGTCAT-3′-HEG)2-symmetrical doubler-HEG-5′-TAGTCAT-3′ [M-101]", "observedValue": "68 pg/mL"}
{"substance": "(5′-TCGACGT-3′-HEG)2-glycerol-HEG-5′-TCGACGT-3′ [C-101]", "observedValue": "5609 pg/mL"}
{"substance": "(5′-TCGACGT-3′-HEG)3-trebler-HEG-5′-TCGACGT-3′ [C-125]", "observedValue": "6348 pg/mL"}
{"substance": "(5′-TAGTCAT-HEG)3-trebler-HEG-5′-TAGTCAT-3′ [M-102]", "observedValue": "85 pg/mL"}
